Reference source: the Immune Epitope Database (IEDB)

Biological target: HLA-A*26:01
Assay: IEDB peptide-MHC binding, purified MHC/direct/fluorescence; filed as Kd, often an IC50 or EC50 that approximates it; bounds were set here for any values at or beyond the usual limits of such assays
Details: source organism: Listeria monocytogenes serotype 4b str. H7858
pKd: −log10 of the molar value.
Parameter measured: pKd

// sample FRDEAGAIL , its pKd was ≤ 4.70

* * *

Target: HLA-B*57:01
Assay: IEDB peptide-MHC binding, purified MHC/direct/fluorescence; filed as Kd, often an IC50 or EC50 that approximates it; bounds were set here for any values at or beyond the usual limits of such assays
Details: source organism: Vibrio vulnificus CMCP6
Parameter measured: pKd
Quick note: pKd means taking -log10 of the concentration in moles per liter.

// sample IVHPPMLYM , its pKd was 5.66

* * *

Target: HLA-B*08:01
Experiment: IEDB peptide-MHC binding, purified MHC/competitive/radioactivity; filed as Kd, often an IC50 or EC50 that approximates it; bounds were set here for any values at or beyond the usual limits of such assays
Conditions: source organism: Dengue virus 2 Jamaica/1409/1983
Parameter measured: pKd
Quick note: pKd means taking -log10 of the concentration in moles per liter.

// sample RKKARSTPF , its pKd was 6.38

* * *

Biological target: HLA-B*57:01
Test: IEDB peptide-MHC binding, purified MHC/direct/fluorescence; filed as Kd, often an IC50 or EC50 that approximates it; bounds were set here for any values at or beyond the usual limits of such assays
Settings: source organism: West Nile virus
pKd: −log10 of the molar value.
Parameter measured: pKd

Reported pKd (HLA-B*57:01) for entry LYAVTTAVL is ≤ 4.70

* * *

Listed here are sequences together with their documented pKd.
Target: HLA-A*11:01
Test: IEDB peptide-MHC binding, purified MHC/competitive/radioactivity; filed as Kd, often an IC50 or EC50 that approximates it; bounds were set here for any values at or beyond the usual limits of such assays
Conditions: source organism: Vaccinia virus WR
Quick note: pKd means taking -log10 of the concentration in moles per liter.

The cases that follow already have their pKd on record.
# Sequence chain, pKd
rows = [
    ("HINALEYIIK", 7.06),
    ("GILKKLSSIK", 6.43),
    ("SVEDVSAFVR", 7.43),
    ("NTRQLKLLEY", 6.82),
    ("SVIRLLIWAY", 7.76),
    ("IVLFQRFLR", 7.87),
    ("VSYEVFDDY", 6.87),
    ("STRTIILVGY", 6.66),
    ("NATDFWRLY", 6.90),
    ("LTMKAIEKDR", 6.55),
]

// sample IFREIASSMK , its pKd was 5.80

// sample TTKDYFSFKK , its pKd was 8.90

// sample ITPDDGLGLR , its pKd was 4.79

// sample FTDISMSLYK , its pKd was 8.05

// sample KLITPNYMK , its pKd was 8.29

// sample VTMMKYCSY , its pKd was 8.06

// sample EMVDELVTRK , its pKd was 5.06

// sample NVIEDITFLR , its pKd was 6.64

// sample KTDFKVVKK , its pKd was 7.22

// sample SLSVETITEK , its pKd was 6.93

// sample NTLSERISSK , its pKd was 9.13

// sample YVKNGTKGK , its pKd was 6.06

// sample RVDIYYNGNK , its pKd was 8.31

// sample ATMLEYVRY , its pKd was 7.63

// sample KSSSIDVDKR , its pKd was 6.26

// sample NLPYNWKNFY , its pKd was 5.36

// sample GSTAEQLSK , its pKd was 7.85

// sample DSIPISELSR , its pKd was 6.01

// sample YFTFGDTALY , its pKd was 5.19

// sample AALFMYYAKR , its pKd was 6.75

// sample KIVDHIVMY , its pKd was 7.04
